Listed here are compounds together with their documented Kd.
# systemTested: UniProt P62937
# Sequence (P62937 whole entry): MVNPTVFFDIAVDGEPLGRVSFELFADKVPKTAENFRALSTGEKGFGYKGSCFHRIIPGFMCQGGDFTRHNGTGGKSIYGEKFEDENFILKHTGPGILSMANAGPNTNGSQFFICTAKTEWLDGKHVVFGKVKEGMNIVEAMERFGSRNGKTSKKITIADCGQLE
# testDetails: Isothermal titration calorimetry (ITC) binding to CypA
# conditionContext: 25° C.
Counter-ions that a name gives are not always drawn.
State the answer as a number, implicitly in µM.

CCOC(=O)CCn1cc(CN(Cc2ccc(N)cc2)C(=O)NCC(=O)N2CCCC2c2ccccc2Br)nn1.Cl (centres unmarked) [Compound 6]    0.3
CCOC(=O)CNC(=O)N(CC)Cc1ccc(N)cc1.Cl [Compound 12, hydrochloride]    200
CCOC(=O)CNC(=O)N(Cc1ccc(N)cc1)Cc1nnn[nH]1.Cl [Compound 14, hydrochloride]    139

Query :: Find the measured Kd: item CCOC(=O)CNC(=O)N(Cc1ccc(N)cc1)Cc1cn(C)nn1.Cl [Compound 18, hydrochloride] , target or system UniProt P62937.
Result :: 135

Query :: Find the measured Kd: item CCOC(=O)[C@H](CCSC)NC(=O)N(CC)Cc1ccc(N)cc1 [Compound 15, hydrochloride] , target or system UniProt P62937.
Result :: 35

Query :: Find the measured Kd: item CCN(Cc1ccc(N)cc1)C(=O)NCC(=O)N1CCCC1c1ccccc1 (centres unmarked) [Compound 9] , target or system UniProt P62937.
Result :: 35

Query :: Find the measured Kd: item CCOC(=O)CNC(=O)N(Cc1ccc(N)cc1)Cc1nnn(C)n1.Cl [Compound 19, hydrochloride] , target or system UniProt P62937.
Result :: 184
